Sourced from patent US20110039721A1

System: mRNA expressed from the genes (A) to (D) in rat liver
Test: Behavior of genes (mRNA expression level, oligo-DNA microarray) in rat liver after 28-day oral administration
Format: in vivo
Details: gene group (C); Unigene No. Rn.9757; mRNA vs vehicle control group
experimentalEndpoint: Behavior of gene caused by administration of chemical substance, Gene No. 1119

compound=C=CCc1ccc2c(c1)OCO2 reportedresult=−
compound=C#C[C@]1(O)CC[C@H]2[C@@H]3CCc4cc(O)ccc4[C@H]3CC[C@@]21C reportedresult=+
compound=CN(C)c1ccc(N=Nc2ccccc2)cc1 reportedresult=−
compound=Cc1cccc(N=Nc2ccc(N(C)C)cc2)c1 reportedresult=−

Q: // fetch Behavior of gene caused by administration of chemical substance, Gene No. 1119 given entry CCSCCC(N)C(=O)O (racemic)
A: −

Q: State its Behavior of gene caused by administration of chemical substance, Gene No. 1119: ClC1=C(Cl)C2(Cl)C3C4C=CC(C4)C3C1(Cl)C2(Cl)Cl (stereo not drawn)
A: −

Q: Item ClC(Cl)C(Cl)(Cl)Cl : provide Behavior of gene caused by administration of chemical substance, Gene No. 1119
A: +

Q: Provide only the value of recorded Behavior of gene caused by administration of chemical substance, Gene No. 1119 for COc1ccc(O)c(C(C)(C)C)c1 [TS023, Butylated hydroxyanisole]
A: −

Q: Provide measured Behavior of gene caused by administration of chemical substance, Gene No. 1119 value, entry: Clc1c(Cl)c(Cl)c(Cl)c(Cl)c1Cl
A: −

* * *

Tested on: mRNA expressed from the genes (A) to (D) in rat liver
Test: Behavior of genes (mRNA expression level, oligo-DNA microarray) in rat liver after 28-day oral administration
Assay type: in vivo
Settings: gene group (C); Unigene No. Rn.144946; mRNA vs vehicle control group
experimentalEndpoint: Behavior of gene caused by administration of chemical substance, Gene No. 1131

compound="O=[N+]([O-])c1cc[n+]([O-])c2ccccc12 [TS049, 4-Nitroquinoline-1-oxide]" reportedresult=−
compound="COc1ccc(O)c(C(C)(C)C)c1 [TS023, Butylated hydroxyanisole]" reportedresult=−
compound="ClC1=C(Cl)C2(Cl)C3C4C=CC(C4)C3C1(Cl)C2(Cl)Cl (stereo not drawn)" reportedresult=−
compound=ClC(Cl)C(Cl)(Cl)Cl reportedresult=+
compound="Cc1c2ccccc2c(C)c2c1ccc1ccccc12 [TS047, 7,12-Dimethylbenz [a]anthracene]" reportedresult=−
compound="CCOC(=O)C(C)(C)Oc1ccc(Cl)cc1 [TS001, Clofibrate]" reportedresult=−

Q: Under mRNA expressed from the genes (A) to (D) in rat liver: report Behavior of gene caused by administration of chemical substance, Gene No. 1131 of CCCCC(CC)COC(=O)CCCCC(=O)OCC(CC)CCCC (stereo not drawn) [TS018, Di(2-ethylhexyl)adipate] .
A: −

Q: Provide the reported Behavior of gene caused by administration of chemical substance, Gene No. 1131 (system: mRNA expressed from the genes (A) to (D) in rat liver) for ClC(Cl)=C(Cl)Cl
A: −

Q: State Behavior of gene caused by administration of chemical substance, Gene No. 1131 (mRNA expressed from the genes (A) to (D) in rat liver) of Cc1cccc(N=Nc2ccc(N(C)C)cc2)c1 .
A: −

Q: Report Behavior of gene caused by administration of chemical substance, Gene No. 1131 from mRNA expressed from the genes (A) to (D) in rat liver testing of Clc1c(Cl)c(Cl)c(Cl)c(Cl)c1Cl
A: −

Q: Return reported Behavior of gene caused by administration of chemical substance, Gene No. 1131 for target or system mRNA expressed from the genes (A) to (D) in rat liver, item Clc1ccc(Cl)cc1 .
A: −

Q: Please report the measured Behavior of gene caused by administration of chemical substance, Gene No. 1131 for CCSCCC(N)C(=O)O (racemic) tested on mRNA expressed from the genes (A) to (D) in rat liver.
A: −

Q: Please report the measured Behavior of gene caused by administration of chemical substance, Gene No. 1131 for ClC=C(Cl)Cl tested on mRNA expressed from the genes (A) to (D) in rat liver.
A: −

Q: // fetch Behavior of gene caused by administration of chemical substance, Gene No. 1131 for c1ccc2c(c1)cc1ccc3cccc4ccc2c1c34 [TS063, Benzo[a]pyrene] ; system: mRNA expressed from the genes (A) to (D) in rat liver
A: −

Q: State Behavior of gene caused by administration of chemical substance, Gene No. 1131 on mRNA expressed from the genes (A) to (D) in rat liver. Entry: c1ccc2cc3c(ccc4ccccc43)cc2c1 [TS046, Benz[a]anthracene]
A: +

Q: For mRNA expressed from the genes (A) to (D) in rat liver, give Behavior of gene caused by administration of chemical substance, Gene No. 1131 of the listed compound: C=CCc1ccc2c(c1)OCO2
A: −

* * *

System: mRNA expressed from the genes (A) to (D) in rat liver
Assay: Behavior of genes (mRNA expression level, oligo-DNA microarray) in rat liver after 28-day oral administration
Format: in vivo
Details: gene group (C), Unigene No. Rn.1647
Method: A test solution was prepared by dissolving each of the carcinogens and the non-carcinogens shown in Tables 2 to 6 in the corresponding solvent shown in Tables 2 to 6. […] The case where the expression level of mRNA in the carcinogen administration group or the non-carcinogen administration group is 1.5 times or more or 1/1.5 or less of the expression level of the corresponding mRNA expressed in the control group was determined to be significant. […]
experimentalEndpoint: Behavior of gene caused by administration of chemical substance, Gene No. 1741

Worked cases, answers included:
molecule="CC(O)CCl (stereo not shown)" reportedresult=−
molecule="Cl.Cl.Nc1ccc(N)cc1 [TS059, p-Phenylenediamine 2HCl]" reportedresult=+
molecule="ClC(Cl)(Cl)Cl [TS003, Carbon tetrachloride]" reportedresult=+
molecule=O=C(OC[C@H]1O[C@@H](OC(=O)c2cc(O)c(O)c(OC(=O)c3cc(O)c(O)c(O)c3)c2)[C@H](OC(=O)c2cc(O)c(O)c(OC(=O)c3cc(O)c(O)c(O)c3)c2)[C@@H](OC(=O)c2cc(O)c(O)c(OC(=O)c3cc(O)c(O)c(O)c3)c2)[C@@H]1OC(=O)c1cc(O)c(O)c(OC(=O)c2cc(O)c(O)c(O)c2)c1)c1cc(O)c(O)c(OC(=O)c2cc(O)c(O)c(O)c2)c1 reportedresult=−
molecule="O=C(c1ccccc1)C(O)c1ccccc1 (stereo not shown)" reportedresult=−

Q: Param request: Behavior of gene caused by administration of chemical substance, Gene No. 1741 | system mRNA expressed from the genes (A) to (D) in rat liver | item Cl.ClCc1ccccn1 [TS033, 2-Chloromethylpyridine HCl]
A: −

Q: Report value only: Behavior of gene caused by administration of chemical substance, Gene No. 1741, mRNA expressed from the genes (A) to (D) in rat liver, COc1ccc2c(c1)c(CC(=O)O)c(C)n2C(=O)c1ccc(Cl)cc1
A: −

* * *

Test system: mRNA expressed from the genes (A) to (D) in rat liver
Test: Behavior of genes (mRNA expression level, oligo-DNA microarray) in rat liver after 28-day oral administration
Assay type: in vivo
Conditions: gene group (C), Unigene No. Rn.144946
experimentalEndpoint: Behavior of gene caused by administration of chemical substance, Gene No. 1131

// solved cases for Behavior of gene caused by administration of chemical substance, Gene No. 1131 follow
molecule=C[C@H](CCC(=O)O)[C@H]1CC[C@H]2[C@@H]3CC[C@@H]4C[C@H](O)CC[C@]4(C)[C@H]3CC[C@]12C testsystem="mRNA expressed from the genes (A) to (D) in rat liver" reportedresult=−
molecule=O=[N+]([O-])c1cccc2ccccc12 testsystem="mRNA expressed from the genes (A) to (D) in rat liver" reportedresult=−
molecule=O=C1O[C@H]([C@@H](O)CO)C(O)=C1O testsystem="mRNA expressed from the genes (A) to (D) in rat liver" reportedresult=+
molecule="Cl.Cl.Nc1ccc(N)cc1 [TS059, p-Phenylenediamine 2HCl]" testsystem="mRNA expressed from the genes (A) to (D) in rat liver" reportedresult=−
molecule=O=c1c(O)c(-c2ccc(O)c(O)c2)oc2cc(O)cc(O)c12 testsystem="mRNA expressed from the genes (A) to (D) in rat liver" reportedresult=−

Q: Indicate its recorded Behavior of gene caused by administration of chemical substance, Gene No. 1131; the molecule in question is CC(=O)Oc1ccccc1C(=O)O
A: +

Q: Tell me Behavior of gene caused by administration of chemical substance, Gene No. 1131 reported for CC1CCC(C(C)C)C(O)C1 (racemic)
A: −

Q: // fetch Behavior of gene caused by administration of chemical substance, Gene No. 1131 given entry Nc1ccc([N+](=O)[O-])cc1N
A: −

Q: Return reported Behavior of gene caused by administration of chemical substance, Gene No. 1131. Input molecule: CC(=O)Nc1ccc(O)cc1
A: −

Q: Let me know recorded Behavior of gene caused by administration of chemical substance, Gene No. 1131 for OC[C@@H](O)[C@@H](O)[C@H](O)[C@H](O)CO , thanks.
A: −

Q: Output Behavior of gene caused by administration of chemical substance, Gene No. 1131 of O=C(OC[C@H]1O[C@@H](OC(=O)c2cc(O)c(O)c(OC(=O)c3cc(O)c(O)c(O)c3)c2)[C@H](OC(=O)c2cc(O)c(O)c(OC(=O)c3cc(O)c(O)c(O)c3)c2)[C@@H](OC(=O)c2cc(O)c(O)c(OC(=O)c3cc(O)c(O)c(O)c3)c2)[C@@H]1OC(=O)c1cc(O)c(O)c(OC(=O)c2cc(O)c(O)c(O)c2)c1)c1cc(O)c(O)c(OC(=O)c2cc(O)c(O)c(O)c2)c1
A: −

Q: Query Behavior of gene caused by administration of chemical substance, Gene No. 1131 for Cc1ccc(N)cc1Cl
A: −

Q: Supply Behavior of gene caused by administration of chemical substance, Gene No. 1131 value. Item: CCC[N+](=O)[O-]
A: +

Q: Could you please provide reported Behavior of gene caused by administration of chemical substance, Gene No. 1131 for COc1ccc2c(c1)c(CC(=O)O)c(C)n2C(=O)c1ccc(Cl)cc1 ? Thanks!
A: −

Q: Respond only with Behavior of gene caused by administration of chemical substance, Gene No. 1131 recorded for Cc1cc(N)ccc1N.O=S(=O)(O)O
A: +

Q: Determine its reported Behavior of gene caused by administration of chemical substance, Gene No. 1131: O=C(c1ccccc1)C(O)c1ccccc1 (stereo not drawn)
A: −

Q: Note Behavior of gene caused by administration of chemical substance, Gene No. 1131 for the molecule shown: Nc1ccc(N)c(Cl)c1.O=S(=O)(O)O
A: −

Q: Consider the molecule O=C([O-])c1ccccc1.[Na+] [TS084, Sodium benzoate] and give its recorded Behavior of gene caused by administration of chemical substance, Gene No. 1131.
A: −

Q: Kindly indicate its recorded Behavior of gene caused by administration of chemical substance, Gene No. 1131. Item: Cl.ClCc1ccccn1 [TS033, 2-Chloromethylpyridine HCl]
A: −

Q: Give Behavior of gene caused by administration of chemical substance, Gene No. 1131 for Nc1cc([N+](=O)[O-])ccc1C(=O)O
A: +

Q: Retrieve Behavior of gene caused by administration of chemical substance, Gene No. 1131 measured for ClC(Cl)(Cl)Cl [TS003, Carbon tetrachloride] and print it.
A: −

Q: Hello, please tell me recorded Behavior of gene caused by administration of chemical substance, Gene No. 1131 for this one: IC(I)I [TS039, Iodoform]
A: −

Q: Given ClC1=C(Cl)[C@]2(Cl)[C@@H]3[C@@H]4C[C@@H]([C@H]5O[C@@H]45)[C@@H]3[C@@]1(Cl)C2(Cl)Cl , respond with its Behavior of gene caused by administration of chemical substance, Gene No. 1131.
A: −

Q: Supply reported Behavior of gene caused by administration of chemical substance, Gene No. 1131 belonging to this molecule: CC(O)CCl (stereo not drawn)
A: −

Q: Specify measured Behavior of gene caused by administration of chemical substance, Gene No. 1131 for NC(=O)c1ccccc1C(N)=O [TS073, Phthalamide] .
A: −

Q: State its Behavior of gene caused by administration of chemical substance, Gene No. 1131 for this molecule: Clc1ccc(C(c2ccc(Cl)cc2)C(Cl)(Cl)Cl)cc1
A: −

Q: Find the measured Behavior of gene caused by administration of chemical substance, Gene No. 1131 of O=C1CCCCCN1 and report it.
A: −
